tested on: A. baumannii ATCC 19606; assay: BPP-PNA MIC, broth microdilution; assay type: cell-based, Acinetobacter baumannii; settings: Table 4 (anti-rne), brand of medium not given; non-cation-adjusted MHB by method; 37 °C, 18 h
{(KFF)3K-eg1} = H-(KFF)3K peptide (K lysine, F phenylalanine) with eg1 linker (8-amino-3,6-dioxaoctanoyl), on the PNA N terminus (5' end); {NH2} = C-terminal amide
Property Name: MIC, ATCC 19606 (µM)
Answers are plain numbers, in µM.

Past entries and their recorded results:
[[record]]
substance = "H-(KFF)3K-eg1- TTTGATGTGTG -NH2 (all peptide nucleic acid (PNA), 5' {(KFF)3K-eg1}, 3' {NH2}) [PNA 5822, anti-rne mismatch control of 5656]"
unit_label = "µM"
obs_value = 8

[[record]]
substance = "H-(KFF)3K-eg1-TTTCATGGGTG-NH2 (antisense; N-terminal (KFF)3K-eg1 peptide, C-terminal amide, backbone not given here, further chemistry not given here) [PNA 5656, anti-rne peptide-PNA conjugate, match, −5 to +6]"
unit_label = "µM"
obs_value = 2

[[record]]
substance = "H-(KFF)3K-eg1-ACGTTTCATGG-NH2 (all peptide nucleic acid (PNA), 5' {(KFF)3K-eg1}, 3' {NH2}) [PNA 5637, anti-rne peptide-PNA conjugate, match, −2 to +9]"
unit_label = "µM"
obs_value = 1


Now, please, on to the next substance.
Given item H-(KFF)3K-eg1-ATACGTTTCAT-NH2 (all peptide nucleic acid (PNA), 5' {(KFF)3K-eg1}, 3' {NH2}) [PNA 5654, anti-rne peptide-PNA conjugate, match, +1 to +11] , the value recorded as its MIC, ATCC 19606 is 2

---

system: CRAB strain AC46; test: Antibiotic MIC (CLSI microdilution or gradient strips); assay type: cell-based, Acinetobacter baumannii; conditions: Acinetobacter baumannii, AC46; sputum isolate; CLSI; read-out: MIC, AC46
Property Name: MIC (µg/mL)
Answers are plain numbers, in µg/mL.

Past entries and their recorded results:
[[record]]
smiles_str = "CN(C)[C@@H]1C(O)=C(C(N)=O)C(=O)[C@@]2(O)C(O)=C3C(=O)c4c(O)cccc4[C@@](C)(O)[C@H]3C[C@@H]12"
obs_value = 128

[[record]]
smiles_str = "C[C@@H](O)[C@H]1C(=O)N2C(C(=O)O)=C(SCCN=CN)C[C@H]12"
obs_value = 16

[[record]]
smiles_str = "CC(C)(O/N=C(\\C(=O)N[C@@H]1C(=O)N2C(C(=O)[O-])=C(C[n+]3ccccc3)CS[C@H]12)c1csc(N)n1)C(=O)O"
obs_value = 128

[[record]]
smiles_str = "CN(C)c1cc(NC(=O)CNC(C)(C)C)c(O)c2c1C[C@H]1C[C@H]3[C@H](N(C)C)C(O)=C(C(N)=O)C(=O)[C@@]3(O)C(O)=C1C2=O"
obs_value = 0.5


Now, please, on to the next compound.
Given item C[C@@H](O)[C@H]1C(=O)N2C(C(=O)O)=C(S[C@@H]3CN[C@H](C(=O)N(C)C)C3)[C@H](C)[C@H]12 , the value recorded as its MIC is 16

---

tested on: CRAB strain AC44; assay: BPP-PNA MIC, broth microdilution; type: cell-based, Acinetobacter baumannii; conditions: Table 4 (anti-rne), brand of medium not given; non-cation-adjusted MHB by method
{(KFF)3K-eg1} = H-(KFF)3K peptide (K lysine, F phenylalanine) with eg1 linker (8-amino-3,6-dioxaoctanoyl), on the PNA N terminus (5' end); {NH2} = C-terminal amide
Property Name: MIC, AC44 (µM)
Answers are plain numbers, in µM.

[[record]]
substance = "H-(KFF)3K-eg1-ATACGTTTCAT-NH2 (all peptide nucleic acid (PNA), 5' {(KFF)3K-eg1}, 3' {NH2}) [PNA 5654, anti-rne peptide-PNA conjugate, match, +1 to +11]"
obs_value = 1


Take each entry in turn and give its MIC, AC44.
1. H-(KFF)3K-eg1- TTTGATGTGTG -NH2 (all peptide nucleic acid (PNA), 5' {(KFF)3K-eg1}, 3' {NH2}) [PNA 5822, anti-rne mismatch control of 5656]
2. H-(KFF)3K-eg1-ACGTTTCATGG-NH2 (all peptide nucleic acid (PNA), 5' {(KFF)3K-eg1}, 3' {NH2}) [PNA 5637, anti-rne peptide-PNA conjugate, match, −2 to +9]

stdout:
1. 8
2. 1

---

test system: CRAB strain AC46; assay: BPP-PNA MIC, broth microdilution; assay type: cell-based, Acinetobacter baumannii; conditions: Sigma MHB medium without cation; 37 °C, 18 h
{(KFF)3K-eg1} = H-(KFF)3K peptide (K lysine, F phenylalanine) with eg1 linker (8-amino-3,6-dioxaoctanoyl), on the PNA N terminus (5' end); {(kff)3k-eg1} = D-form (kff)3k peptide with eg1 linker (8-amino-3,6-dioxaoctanoyl), on the PNA N terminus; {NH2} = C-terminal amide
Property Name: MIC, AC46 (µM)
One number for each entry, in µM.

Past entries and their recorded results:
[[record]]
substance = "H-(kff)3k-eg1-TGATTTGCCAC-NH2 (all peptide nucleic acid (PNA), 5' {(kff)3k-eg1}, 3' {NH2}) [PNA 5823, anti-acpP PNA with D-form peptide, match]"
obs_value = 4

[[record]]
substance = "H-(KFF)3K-eg1-ATATCGCTCAC-NH2 (all peptide nucleic acid (PNA), 5' {(KFF)3K-eg1}, 3' {NH2}) [PNA 5652, anti-acpP peptide-PNA conjugate, match, +40 to +50]"
obs_value = 4

[[record]]
substance = "H-(kff)3k -eg1-TGACTTGTCAC-NH2 (all peptide nucleic acid (PNA), 5' {(kff)3k-eg1}, 3' {NH2}) [PNA 5824, anti-acpP PNA with D-form peptide, mismatch]"
obs_value = 4


Now, please, on to the next substance.
Given item H-(KFF)3K-eg1-TGACTTGTCAC-NH2 (all peptide nucleic acid (PNA), 5' {(KFF)3K-eg1}, 3' {NH2}) [PNA 5640, anti-acpP mismatch control of 5639] , the value recorded as its MIC, AC46 is 4

This collection of values is drawn from paper PMC8071358.
